Assay: NCI Yeast Anticancer Drug Screen. Data for the rad50 strain (AID 155);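 also: 0% = growth of vehicle-only cultures of the same strain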
Conditions: S. cerevisiae rad50 strain growth inhibition; at 100.0 µM; stronger effect = higher value
Compounds without any hit were thinned out: in the full panel of roughly 79,000, 15% have a hit.

{"columns": ["Compound", "growth inhibition / %"],
 "data": [
  ["Br[Se]c1ccccn1", 98],
  ["O=[N+]([O-])c1ccc(C=Cc2ccccc2)cc1.[C-]#[O+].[C-]#[O+].[C-]#[O+].[Cr]", 79],
  ["CC1=C(CO)C2=C(C)C3(CC3)[C@@](C)(O)C(=O)C2=C1", 79],
  ["[Pt].c1ccc(P(CCP(c2ccccc2)c2ccccc2)CCP(c2ccccc2)c2ccccc2)cc1", 93],
  ["O=C1c2ccc3ccccc3c2CCC1N1CCCCC1 (stereo not given)", 98],
  ["CC(=O)[O-].O=C([CH-]C(=O)c1ccccc1)c1ccccc1.O=C([CH-]C(=O)c1ccccc1)c1ccccc1.[Sm+3]", 98],
  ["O=c1oc2ccccc2c(O)c1C(c1ccc2ccccc2c1)c1c(O)c2ccccc2oc1=O", 97],
  ["CCC1(O)C(=O)OCc2c1cc1n(c2=O)Cc2cc3cc(Cl)ccc3nc2-1 (stereo not given)", 78],
  ["CCOP(=S)(S)OCC.[Pd]", 92],
  ["CC[C@@]1(O)C(=O)OCc2c1cc1n(c2=O)Cc2cc3ccccc3nc2-1", 95],
  ["Oc1ccc(Cl)cc1Cc1ccccc1", 98],
  ["O=S(=O)(O)/C(=C\\c1ccccc1)c1ccccc1 (tested in a mixture with another compound)", -4],
  ["COc1cc(C2c3cc4c(cc3[C@@H](Nc3ccc(N)cc3)C3COC(=O)[C@H]23)OCO4)cc(OC)c1O (stereo not given in full)", 88],
  ["CC[PH+](CC)CC.CC[PH+](CC)CC.[Au]", 99],
  ["CCCCN(CCCC)CC(C(C)=O)C(c1ccccc1)c1c(O)c2ccccc2oc1=O (stereo not given)", 1],
  ["COC(=O)C1c2cc3c(c(O)c2C(O)CC1(C)O)C(=O)c1c(O)cc2c(c1C3=O)OC1OC2(C)C(O)C(N(C)C)C1O (stereo not given)", 93],
  ["CCC1(O)C(=O)OCc2c1cc1n(c2=O)Cc2cc3ccccc3nc2-1 (stereo not given)", 94],
  ["NC1=NCC(c2ccc(Cl)cc2)O1 (stereo not given)", 49],
  ["C/C(=N\\O)c1ccc2ccc3ccccc3c2c1", 97],
  ["Nc1nnc(N)n1-n1c(N)nnc1N", 9],
  ["Cc1cccc(NC(=O)CBr)c1", 99],
  ["O=C1c2ccccc2C(=O)C(Cl)C1Cl (stereo not given)", 99],
  ["c1ccc(N=c2nc(N3CCOCC3)ss2)cc1", 99],
  ["CNC(=O)ON(C(C)=O)C(=O)NC", -4],
  ["C/C(CCl)=N/NC1=NC(c2ccccc2Cl)P(=O)(NCCCNP2(=O)SC(N/N=C(/C)CCl)=NC2c2ccccc2Cl)S1 (stereo not given)", 34],
  ["CC[C@]1(O)CC(OC2CC(N(C)C)C(O)C(C)O2)c2c(cc3c(c2O)C(=O)c2c(O)cccc2C3=O)[C@@H]1C(=O)OC (stereo not given in full)", 97],
  ["CCOC(=O)C1([Se]c2ccccc2)CCCC1=O (stereo not given)", 92],
  ["O=[N+]([O-])c1cc([As](Br)c2ccc(O)c([N+](=O)[O-])c2)ccc1O", 98],
  ["OC(c1ccc(Br)cc1)C(Cl)(Cl)Cl (stereo not given)", 97],
  ["C/C(=N\\N=C(N)N)C(CN1CCOCC1)C(c1ccccc1)c1c(O)c2ccccc2oc1=O (stereo not given)", 94],
  ["COc1ccc(OC)c(/C=C/[N+](=O)[O-])c1", 99],
  ["O=c1c2ccccc2[se]n1-c1cccnc1", 90],
  ["O=C(COc1ccc(Cl)cc1Cl)NO", 77],
  ["CCCCCCCCCC[Se]C#N", 97],
  ["CC1=C(O)C(=O)C=C2C1=CC=C1[C@@]2(C)CCC2(C)[C@@H]3C[C@@H](C)C(=O)C[C@]3(C)CC[C@]12C (stereo not given in full)", 97],
  ["CC1CCCN(CCc2ccccc2)CC1 (stereo not given)", 14],
  ["N#Cc1cc(N(CCCl)CCCl)c([N+](=O)[O-])cc1[N+](=O)[O-]", 65],
  ["CC(C)CC(NC(=O)C(N)C(C)C)C(=O)NC(CCCCN)C(=O)Nc1ccc(N(CCCl)CCCl)cc1 (stereo not given)", 2],
  ["O=C(O)C1C2c3ccccc3C(c3ccccc32)C1C(=O)O (stereo not given)", 12],
  ["CC1CN=C(Nc2ccccc2)S1 (stereo not given)", -17],
  ["NCCc1ccc(OCc2ccccc2)c(OCc2ccccc2)c1", 96],
  ["c1ccc2cc3n[se]nc3cc2c1", 96],
  ["CCOC(=O)C1C2c3ccccc3C(c3ccccc32)C1C(=O)OCC (stereo not given)", 91],
  ["C[N+]1(CCCl)CC[N+](C)(CCCl)CC1 (stereo not given)", 96],
  ["CC(C)(C)c1cc([N+](=O)[O-])cc([N+](=O)[O-])c1O", 22]
]}

----------
Assay: NCI Yeast Anticancer Drug Screen. Data for the mec2-1 strain (AID 157)
Settings: S. cerevisiae mec2-1 strain, at 5.0 µM (retest, dose inferred, filed as 0.5), stronger effect = higher value
The panel holds about 79,000 compounds, 15% with a hit somewhere; the sample as a whole holds those more often.
Rule: growth inhibition under 40% gives f, otherwise t.

{"columns": ["Molecule", "Discrete label"],
 "data": [
  ["O=[N+]([O-])O.[NH-]C1CCCCC1[NH-].[NH-]C1CCCCC1[NH-].[NH-]C1CCCCC1[NH-].[OH-].[OH-].[OH-].[Pt+4].[Pt+4].[Pt+4] (centres undefined)", "f"],
  ["COc1ccc(CNCCc2ccc(O)c(OC)c2)cc1O", "f"],
  ["N=P(c1ccccc1)(c1ccccc1)c1ccccc1.[O]=[Cr](=[O])([OH])[O][Cr](=[O])(=[O])[OH]", "f"],
  ["CCC[CH2][Sn]1([CH2]CCC)[O]CC[S]1", "t"],
  ["CSc1ccc2c(c1)c(CCN)c(C)n2Cc1ccccc1Cl", "f"],
  ["CC(C)C1=CC23CCC4C(C)(C(=O)O)CCCC4(C)C2CC1OO3 (centres undefined)", "f"],
  ["OC1CCCC2CCC[N-]C12.OC1CCCC2CCC[N-]C12.[O]=[V][OH] (centres undefined)", "t"],
  ["C[CH2][Sn][CH2]C.c1cc[c]([Ge]([c]2ccccc2)[c]2ccccc2)cc1.c1cc[c]([Sn]([c]2ccccc2)[c]2ccccc2)cc1", "t"],
  ["CCOC(=O)C1([Se]c2ccccc2)CCCC1=O (centres undefined)", "f"],
  ["CO[C@H](/C(C)=C/C=C/C(C)=C/c1coc(C)n1)[C@H](C)[C@H]1C[C@@H](O)[C@@]2(C)O[C@H]2/C=C/[C@@H](C)[C@@H]2C[C@@H](CC(=O)O2)C[C@H]2O[C@@H]2C(=O)O1", "f"],
  ["CC(=O)[O][Hg][c]1cc2c(cc1O)Cc1cc([N+](=O)[O-])ccc1-2", "t"],
  ["O=C(N/N=C/c1cc(Cl)cc(Cl)c1[O-])c1ccccc1O.O=C(N/N=C/c1cc(Cl)cc(Cl)c1[O-])c1ccccc1O.[Zn+2]", "t"],
  ["CCC(C)(C)c1ccc(O)cc1", "f"],
  ["CC[C@@]1(O)CC(OC2CC(N3CCOCC3)C(O)C(C)O2)c2c(O)c3c(c(O)c2[C@H]1O)C(=O)c1cccc(O)c1C3=O (some centres undefined)", "f"],
  ["CNC(=O)N1CN(c2ccccc2)C2(CCN(CCCC(=O)c3ccc(F)cc3)CC2)C1=O", "f"],
  ["ClCCCCCl", "f"],
  ["N#Cc1ccc([Se]c2ccccc2)cc1", "t"],
  ["CCOP(=O)(O)C(Nc1ccc(N=Nc2ccccc2)cc1)c1cccc(C(Nc2ccc(N=Nc3ccccc3)cc2)P(=O)(O)OCC)c1 (centres undefined)", "f"],
  ["C[N+](C)(C)CC1CCC(C[N+](C)(C)C)C1=O (centres undefined)", "f"]
]}

----------
Assay: NCI Yeast Anticancer Drug Screen. Data for the mec2-1 strain (AID 157)
Details: S. cerevisiae mec2-1 strain, at 50.0 µM (retest, dose inferred, filed as 5.0), stronger effect = higher value
This is part of a sample that, as a whole, favours compounds with a hit. Of some 79,000 tested, about 15% had one in any assay.
Let's look at some compounds and their measured growth inhibition.
Measure name: growth inhibition (%)

{"columns": ["Compound", "Result units", "Number"],
 "data": [
  ["CSc1nncc(=O)[nH]1.[Hg]", "%", 99],
  ["O=C(O)c1cc([N+](=O)[O-])c(Cl)c([N+](=O)[O-])c1Cl", "%", 99],
  ["O=C1C(Cl)=C(Cl)C(=O)N1c1ccc(F)cc1", "%", 100],
  ["O=[N+]([O-])c1cc2c([N+](=O)[O-])cccc2o1", "%", 99],
  ["CCCCCCCC/C=C\\CCCCCCCCN1CC(C(=O)[O][Pb]([CH2]C)([CH2]C)[CH2]C)CC1=O (stereo not given)", "%", 80],
  ["COc1cc(C2c3cc4c(cc3[C@@H](Nc3ccc(F)cc3)C3COC(=O)[C@H]23)OCO4)cc(OC)c1O (stereo not given in full)", "%", 98],
  ["COC1C(C)OC(OC2CC(C)(O)Cc3cc4c(c(O)c32)C(=O)c2c(O)cc3c(c2C4=O)OC2OC3(C)C(O)C(N(C)C)C2O)C(OC)C1(C)OC (stereo not given)", "%", 99],
  ["COc1cc(C=Nc2ccc(-c3csc(COc4ccccc4)n3)cc2)ccc1N(CCCl)CCCl", "%", 92],
  ["CCC[CH2][Sn]([CH2]CCC)([S]C1=NCCS1)[S]C1=NCCS1", "%", 97],
  ["CCCCCOC(=O)CCl", "%", 16]
]}
